# System: S. aureus 209PJC
# Measurement description: Bactericidal activity test (MBC, phenol coefficient measuring method)
# Format: cell-based
# Particulars: 5 min
Property: minimal bactericidal concentration (MBC) (µg/mL)

{"Compound": "CC(=O)O.CCCCCCCCNC1=NC(C)(C)N=C(NCc2ccc(C)cc2)N1 [compound 58]", "Property": "minimal bactericidal concentration (MBC)", "Measure unit": "µg/mL", "Reported": 3.1}
{"Compound": "CC(=O)O.CCCCCCCCNC1=NC(C)(C)N=C(NCCCCCC)N1 [compound 68]", "Property": "minimal bactericidal concentration (MBC)", "Measure unit": "µg/mL", "Reported": 6.3}
{"Compound": "CCCCCCCCCC1N=C(N)N=C(N)N1c1ccc(C(C)(C)C)cc1.Cl (stereo not drawn) [compound 22]", "Property": "minimal bactericidal concentration (MBC)", "Measure unit": "µg/mL", "Reported": 6.3}
{"Compound": "CCCCCCCCCCCC1N=C(N)NC(NCc2ccccc2)=N1.Cl (racemic) [43(1)]", "Property": "minimal bactericidal concentration (MBC)", "Measure unit": "µg/mL", "Reported": 6.3}
{"Compound": "CC(=O)O.CCCCCCCCNC1=NC(C)(C)N=C(NCC2CCCCC2)N1 [compound 65]", "Property": "minimal bactericidal concentration (MBC)", "Measure unit": "µg/mL", "Reported": 3.1}
{"Compound": "CCCCCCCCCCCCCCNC1=NC(C)(C)N=C(N)N1.Cl [compound 72]", "Property": "minimal bactericidal concentration (MBC)", "Measure unit": "µg/mL", "Reported": 1.6}
{"Compound": "CCCCCCCCNC1=NC(C)(C)N=C(NCc2ccc(C)cc2)N1 [compound 37]", "Property": "minimal bactericidal concentration (MBC)", "Measure unit": "µg/mL", "Reported": 6.3}
{"Compound": "CCCCCCCCCCC1N=C(N)N=C(N)N1c1ccc(F)c(F)c1F.Cl (stereo not drawn) [compound 31]", "Property": "minimal bactericidal concentration (MBC)", "Measure unit": "µg/mL", "Reported": 12.5}
{"Compound": "CCCCCCCCCCNC1=NC(C)(C)N=C(NCc2ccccc2)N1.CS(=O)(=O)O [compound 2]", "Property": "minimal bactericidal concentration (MBC)", "Measure unit": "µg/mL", "Reported": 3.1}

###

Some compounds, each annotated with its measured minimal inhibitory concentration (MIC).
# Test system: MRSA 97-115
# Measurement description: Antibacterial activity test (MIC)
# Format: cell-based, methicillin-resistant Staphylococcus aureus
# Particulars: Mueller-Hinton Broth, 37° C., 20 to 24 hours

{"Compound": "CCCCCCCCCCCNC1=NC(C)(C)N=C(NCc2ccc(O)cc2)N1.Cl", "minimal inhibitory concentration (MIC)": "1.6 µg/mL"}
{"Compound": "CCCCCCCCCCCNC1=NC(C)(C)N=C(NCc2ccccc2)N1.O=C(O)C(=O)O", "minimal inhibitory concentration (MIC)": "0.8 µg/mL"}
{"Compound": "CCCCCCCCCCCC1N=C(N)NC(NCc2ccccc2)=N1.Cl (racemic)", "minimal inhibitory concentration (MIC)": "0.8 µg/mL"}
{"Compound": "CCCCCCCCCCC1N=C(N)NC(Nc2ccc(F)c(F)c2F)=N1.Cl (stereo not drawn)", "minimal inhibitory concentration (MIC)": "1.6 µg/mL"}
{"Compound": "CC(=O)O.CCCCCCCCNC1=NC(C)(C)N=C(NCc2ccccc2)N1", "minimal inhibitory concentration (MIC)": "1.6 µg/mL"}
{"Compound": "CCCCCCCCCCCCC1N=C(N)NC(NCc2ccccc2)=N1.Cl (racemic)", "minimal inhibitory concentration (MIC)": "0.8 µg/mL"}
{"Compound": "CC(=O)O.CCCCCCCCNC1=NC(C)(C)N=C(NCCCCCCC)N1", "minimal inhibitory concentration (MIC)": "1.6 µg/mL"}
{"Compound": "CC(=O)O.CCCCCCCCNC1=NCN=C(NCCCCCCCC)N1", "minimal inhibitory concentration (MIC)": "0.8 µg/mL"}
{"Compound": "CCCCCCCCCCNC1=NC(C)(C)N=C(NCc2ccc(OC)cc2)N1.CS(=O)(=O)O", "minimal inhibitory concentration (MIC)": "0.8 µg/mL"}

###

# System: E. coli NIHJ JC-2
# Measurement description: Antibacterial activity test (MIC)
# Type: cell-based
# Particulars: Mueller-Hinton Broth, 37° C., 20 to 24 hours
# Method: Regarding compounds obtained in respective Working Examples, in order to investigate antibacterial activity, minimal inhibitory concentration (MIC) was determined according to a standard method of Japanese Society of Chemotherapy. As a test bacterium, nine kinds of S. aureus 209PJC, MRSA 97-115, MRSA KM 97-53, MRSA KM97-108, VRE 49, E. coli NIHJ JC-2, P. aeruginosa PAO-1, P. aeruginosa No. 12, P. aeruginosa KM97-5 were used and, as a medium, Mueller-Hinton Broth (DIFCO) was used. […]
// minimal inhibitory concentration (MIC) lookup, one value per entry

{"Molecule": "CCCCCCCCC1N=C(N)NC(NCc2ccc(C(F)(F)F)cc2)=N1.Cl (stereo not drawn)", "Study target": "E. coli NIHJ JC-2", "Qualifier": "=", "minimal inhibitory concentration (MIC) / µg/mL": 12.5}
{"Molecule": "CCCCCCCCCCNC1=NC(C)(C)N(c2ccc(OC)cc2)C(N)=N1.Cl", "Study target": "E. coli NIHJ JC-2", "Qualifier": "=", "minimal inhibitory concentration (MIC) / µg/mL": 50}
{"Molecule": "CC(=O)O.CCCCCCCNC1=NC2(CCCC2)N=C(NCc2ccccc2)N1", "Study target": "E. coli NIHJ JC-2", "Qualifier": "=", "minimal inhibitory concentration (MIC) / µg/mL": 50}
{"Molecule": "CCCCCCCCCC1N=C(N)N=C(N)N1c1ccc(OC(F)(F)F)cc1.Cl (stereo not drawn)", "Study target": "E. coli NIHJ JC-2", "Qualifier": "=", "minimal inhibitory concentration (MIC) / µg/mL": 25}
{"Molecule": "CCCCCCCCNC1=NC(C)(C)N(c2cccc3ccccc23)C(N)=N1.Cl", "Study target": "E. coli NIHJ JC-2", "Qualifier": "=", "minimal inhibitory concentration (MIC) / µg/mL": 100}
{"Molecule": "CCCCCCCCCCNC1=NC(C)(C)N=C(NCc2ccc(C(=O)O)cc2)N1.Cl", "Study target": "E. coli NIHJ JC-2", "Qualifier": ">", "minimal inhibitory concentration (MIC) / µg/mL": 100}
{"Molecule": "CCCCCCCCCCC1N=C(N)NC(Nc2ccc(F)cc2F)=N1 (stereo not drawn)", "Study target": "E. coli NIHJ JC-2", "Qualifier": "=", "minimal inhibitory concentration (MIC) / µg/mL": 50}
{"Molecule": "CCCCCCCCNC1=NC(C)(C)N=C(NCc2ccc(C)cc2)N1", "Study target": "E. coli NIHJ JC-2", "Qualifier": "=", "minimal inhibitory concentration (MIC) / µg/mL": 12.5}
{"Molecule": "CCCCCCCCCCNC1=NC(C)(C)N=C(NCc2ccc(OC)cc2)N1.Cl", "Study target": "E. coli NIHJ JC-2", "Qualifier": "=", "minimal inhibitory concentration (MIC) / µg/mL": 12.5}

###

# Test system: E. coli NIHJ JC-2
# Measurement description: Antibacterial activity test (MIC)
# Type: cell-based
# Particulars: Mueller-Hinton Broth, 37° C., 20 to 24 hours
Property: minimal inhibitory concentration (MIC) (mg/L)

{"Compound": "CC(=O)O.CCCCCCCCNC1=NC(C)(C)N=C(Nc2cnc3ccccc3c2)N1 [compound 82]", "Qualifier": "=", "Reported": 25}
{"Compound": "CCCCCCCCCCCCNC1=NC(C)(C)N=C(NCc2ccc(S(N)(=O)=O)cc2)N1 [compound 80]", "Qualifier": ">", "Reported": 100}
{"Compound": "CCCCCCCCCCCC1(C)N=C(N)N=C(N)N1c1ccc(Cl)cc1.Cl (racemic) [compound 45]", "Qualifier": ">", "Reported": 100}
{"Compound": "CCCCCCCCCCC1N=C(N)N=C(N)N1c1ccc(F)cc1F.Cl (stereo not drawn) [compound 33]", "Qualifier": "=", "Reported": 25}
{"Compound": "CC(=O)O.CCCCCCCCNC1=NC(C)(C)N=C(NCC2CCCCC2)N1 [compound 65]", "Qualifier": "=", "Reported": 25}
{"Compound": "CCCCCCCCCCNC1=NC(C)(C)N=C(NCc2ccc(OC)cc2)N1.O=C(O)CC(=O)O [compound 39]", "Qualifier": "=", "Reported": 25}
{"Compound": "CCCCCCCCCCCCC1N=C(N)N=C(N)N1CCc1ccc(OC)cc1.Cl (racemic) [15(2)]", "Qualifier": "=", "Reported": 50}
{"Compound": "CC(=O)O.CCCCCCCCNC1=NCN=C(NCCCCCCCC)N1 [compound 74]", "Qualifier": "=", "Reported": 12.5}
{"Compound": "CCCCCCCCCCCCNC1=NC(C)(C)N=C(N)N1.O=[N+]([O-])O [compound 75]", "Qualifier": "=", "Reported": 25}
